Value source: PubChem BioAssay AID1963420

Test system: 494315-158-R-J1-PDC complex spheroid growth, percent test/control
Assay: Anticancer human tumor 494315-158-R-J1-PDC patient-derived soft tissue sarcoma cell line growth inhibition [Asc]
Details: second compound 0.316 µM; first compound 0.316 µM; active compounds read low
readout: viability, T/C (%)
State just the number; it will be interpreted in %.

*Q* Could you share which viability, T/C value was measured for O=C(c1ccc(F)c(F)c1Nc1ccc(I)cc1F)N1CC(O)([C@@H]2CCCCN2)C1 + CNC(C)C(=O)NC1CN(S(=O)(=O)c2cccc(S(=O)(=O)N3CCC4CCC(C(=O)NC(c5ccccc5)c5ccccc5)N4C(=O)C(NC(=O)C(C)NC)C3)c2)CCC2CCC(C(=O)NC(c3ccccc3)c3ccccc3)N2C1=O ?
*A* 72.2

###

Recorded measurements of viability, T/C, one per entry
Test system: 494315-158-R-J1-PDC complex spheroid growth, percent test/control
Assay: Anticancer human tumor 494315-158-R-J1-PDC cell line growth inhibition [Asc];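 also: compound exposure lasted seven days after spheroids formed for three days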
Details: second compound 0.316 µM; first compound 0.0949 µM; active compounds read low
Number in %, nothing else.

*Q* Consider the molecule CCN1C(C(=O)NC23CCC(C(=O)O)(CC2)CC3)C(c2cccc(Cl)c2F)C2(C(=O)Nc3cc(Cl)ccc32)C12CCCCC2 (stereo unspecified) + Cc1c(S(C)(=O)=O)c(-c2cc(F)cc(N3CCN(c4ccc(NS(=O)(=O)c5ccc(NC(CCN6CCC(C(=O)OCCCP(=O)(O)O)CC6)CSc6ccccc6)c(S(=O)(=O)C(F)(F)F)c5)cc4)CC3)c2)c(-c2ccc(Cl)cc2)n1C(C)C and give its measured viability, T/C.
*A* 64.4

*Q* Please give the measured viability, T/C for this molecule: NC(=O)C(=Cn1cnc(-c2cc(C(F)(F)F)cc(C(F)(F)F)c2)n1)c1cncnc1 + Cc1c(S(C)(=O)=O)c(-c2cc(F)cc(N3CCN(c4ccc(NS(=O)(=O)c5ccc(NC(CCN6CCC(C(=O)OCCCP(=O)(O)O)CC6)CSc6ccccc6)c(S(=O)(=O)C(F)(F)F)c5)cc4)CC3)c2)c(-c2ccc(Cl)cc2)n1C(C)C
*A* 23.2

*Q* What value of measured viability, T/C is listed for NC(=O)C(=Cn1cnc(-c2cc(C(F)(F)F)cc(C(F)(F)F)c2)n1)c1cncnc1 + CNC(C)C(=O)NC1CN(S(=O)(=O)c2cccc(S(=O)(=O)N3CCC4CCC(C(=O)NC(c5ccccc5)c5ccccc5)N4C(=O)C(NC(=O)C(C)NC)C3)c2)CCC2CCC(C(=O)NC(c3ccccc3)c3ccccc3)N2C1=O ?
*A* 24.4

*Q* What value of viability, T/C has been reported for the following molecule? Cc1nc(N2CCC3(CC2)COC(C)C3N)c(CO)nc1Sc1ccnc(N)c1Cl (stereo unspecified) + Cc1c(S(C)(=O)=O)c(-c2cc(F)cc(N3CCN(c4ccc(NS(=O)(=O)c5ccc(NC(CCN6CCC(C(=O)OCCCP(=O)(O)O)CC6)CSc6ccccc6)c(S(=O)(=O)C(F)(F)F)c5)cc4)CC3)c2)c(-c2ccc(Cl)cc2)n1C(C)C
*A* 51.8

*Q* Which viability, T/C value belongs to CCN1C(C(=O)NC23CCC(C(=O)O)(CC2)CC3)C(c2cccc(Cl)c2F)C2(C(=O)Nc3cc(Cl)ccc32)C12CCCCC2 (stereo unspecified) + CNC(C)C(=O)NC1CN(S(=O)(=O)c2cccc(S(=O)(=O)N3CCC4CCC(C(=O)NC(c5ccccc5)c5ccccc5)N4C(=O)C(NC(=O)C(C)NC)C3)c2)CCC2CCC(C(=O)NC(c3ccccc3)c3ccccc3)N2C1=O ?
*A* 49.8

*Q* Name the recorded viability, T/C for Cc1nc(N2CCC3(CC2)COC(C)C3N)c(CO)nc1Sc1ccnc(N)c1Cl (stereo unspecified) + CNC(C)C(=O)NC1CN(S(=O)(=O)c2cccc(S(=O)(=O)N3CCC4CCC(C(=O)NC(c5ccccc5)c5ccccc5)N4C(=O)C(NC(=O)C(C)NC)C3)c2)CCC2CCC(C(=O)NC(c3ccccc3)c3ccccc3)N2C1=O .
*A* 47.2

###

Tested on: 494315-158-R-J1-PDC complex spheroid growth, percent test/control
Assay: Anticancer human tumor 494315-158-R-J1-PDC cell line growth inhibition [Asc]; active = viability on the fitted dose curve at most 10% of control; inactive = the rest;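 also: compound exposure lasted seven days after spheroids formed for three days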
Settings: second compound 3 µM; first compound 10 µM
Outcomes you can answer with include only these: yes (1) = active, no (0) = inactive

Known results for compounds:
C=C(F)C(=O)N1CCN(c2nc(OCC3CCCN3C)nc3c2CCN(c2cccc4cccc(Cl)c24)C3)CC1CC#N (centres undefined) + CCN1C(C(=O)NC23CCC(C(=O)O)(CC2)CC3)C(c2cccc(Cl)c2F)C2(C(=O)Nc3cc(Cl)ccc32)C12CCCCC2 ... yes (1)
O=C(c1cc(Cc2n[nH]c(=O)c3ccccc23)ccc1F)N1CCN(C(=O)C2CC2)CC1 + CCN1C(C(=O)NC23CCC(C(=O)O)(CC2)CC3)C(c2cccc(Cl)c2F)C2(C(=O)Nc3cc(Cl)ccc32)C12CCCCC2 ... no (0)
C=CC(=O)N1CCN(c2nc(=O)n(-c3c(C)ccnc3C(C)C)c3nc(-c4c(O)cccc4F)c(F)cc23)C(C)C1 (centres undefined) + CCN1C(C(=O)NC23CCC(C(=O)O)(CC2)CC3)C(c2cccc(Cl)c2F)C2(C(=O)Nc3cc(Cl)ccc32)C12CCCCC2 ... no (0)

*Q* Per the records of this test, what outcome belongs to C#Cc1c(F)ccc2cc(O)cc(-c3ncc4c(N5CC6CCC(C5)N6)nc(OCC56CCCN5CC(F)C6)nc4c3F)c12 (centres undefined) + CCN1C(C(=O)NC23CCC(C(=O)O)(CC2)CC3)C(c2cccc(Cl)c2F)C2(C(=O)Nc3cc(Cl)ccc32)C12CCCCC2 ?
*A* no (0)

###

In this section, each of the compounds is paired with its reported viability, T/C.
Tested on: 494315-158-R-J1-PDC complex spheroid growth, percent test/control
Test: Anticancer human tumor 494315-158-R-J1-PDC cell line growth inhibition [Asc];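 also: compound exposure lasted seven days after spheroids formed for three days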
Conditions: second compound 0.01 µM; first compound 0.1 µM; active compounds read low
Respond numerically; units are % and should not be typed.

The cases that follow already have their viability, T/C on record.
C=C(F)C(=O)N1CCN(c2nc(OCC3CCCN3C)nc3c2CCN(c2cccc4cccc(Cl)c24)C3)CC1CC#N (centres undefined) + CNC(C)C(=O)NC1CN(S(=O)(=O)c2cccc(S(=O)(=O)N3CCC4CCC(C(=O)NC(c5ccccc5)c5ccccc5)N4C(=O)C(NC(=O)C(C)NC)C3)c2)CCC2CCC(C(=O)NC(c3ccccc3)c3ccccc3)N2C1=O ... 70.6
O=C(c1cc(Cc2n[nH]c(=O)c3ccccc23)ccc1F)N1CCN(C(=O)C2CC2)CC1 + CNC(C)C(=O)NC1CN(S(=O)(=O)c2cccc(S(=O)(=O)N3CCC4CCC(C(=O)NC(c5ccccc5)c5ccccc5)N4C(=O)C(NC(=O)C(C)NC)C3)c2)CCC2CCC(C(=O)NC(c3ccccc3)c3ccccc3)N2C1=O ... 73.2
CCN1CCN(Cc2ccc(Nc3ncc(F)c(-c4cc(F)c5nc(C)n(C(C)C)c5c4)n3)nc2)CC1 + CNC(C)C(=O)NC1CN(S(=O)(=O)c2cccc(S(=O)(=O)N3CCC4CCC(C(=O)NC(c5ccccc5)c5ccccc5)N4C(=O)C(NC(=O)C(C)NC)C3)c2)CCC2CCC(C(=O)NC(c3ccccc3)c3ccccc3)N2C1=O ... 64.4
COc1c(OCCCN2CCOCC2)ccc2c3n(c(=NC(=O)c4cnc(N)nc4)nc12)CCN3 + CNC(C)C(=O)NC1CN(S(=O)(=O)c2cccc(S(=O)(=O)N3CCC4CCC(C(=O)NC(c5ccccc5)c5ccccc5)N4C(=O)C(NC(=O)C(C)NC)C3)c2)CCC2CCC(C(=O)NC(c3ccccc3)c3ccccc3)N2C1=O ... 22.7
O=C(c1ccc(F)c(F)c1Nc1ccc(I)cc1F)N1CC(O)([C@@H]2CCCCN2)C1 + CNC(C)C(=O)NC1CN(S(=O)(=O)c2cccc(S(=O)(=O)N3CCC4CCC(C(=O)NC(c5ccccc5)c5ccccc5)N4C(=O)C(NC(=O)C(C)NC)C3)c2)CCC2CCC(C(=O)NC(c3ccccc3)c3ccccc3)N2C1=O ... 96.7

*Q* What value of viability, T/C on 494315-158-R-J1-PDC complex spheroid growth, percent test/control does NC1CCC(NC2CC2c2ccccc2)CC1 (centres undefined) + CNC(C)C(=O)NC1CN(S(=O)(=O)c2cccc(S(=O)(=O)N3CCC4CCC(C(=O)NC(c5ccccc5)c5ccccc5)N4C(=O)C(NC(=O)C(C)NC)C3)c2)CCC2CCC(C(=O)NC(c3ccccc3)c3ccccc3)N2C1=O have?
*A* 66.1

*Q* What viability, T/C appears in the records for this compound with 494315-158-R-J1-PDC complex spheroid growth, percent test/control? C#Cc1c(F)ccc2cc(O)cc(-c3ncc4c(N5CC6CCC(C5)N6)nc(OCC56CCCN5CC(F)C6)nc4c3F)c12 (centres undefined) + CNC(C)C(=O)NC1CN(S(=O)(=O)c2cccc(S(=O)(=O)N3CCC4CCC(C(=O)NC(c5ccccc5)c5ccccc5)N4C(=O)C(NC(=O)C(C)NC)C3)c2)CCC2CCC(C(=O)NC(c3ccccc3)c3ccccc3)N2C1=O
*A* 77.5

*Q* Can you look up viability, T/C on 494315-158-R-J1-PDC complex spheroid growth, percent test/control for C=CC(=O)N1CCN(c2nc(=O)n(-c3c(C)ccnc3C(C)C)c3nc(-c4c(O)cccc4F)c(F)cc23)C(C)C1 (centres undefined) + CNC(C)C(=O)NC1CN(S(=O)(=O)c2cccc(S(=O)(=O)N3CCC4CCC(C(=O)NC(c5ccccc5)c5ccccc5)N4C(=O)C(NC(=O)C(C)NC)C3)c2)CCC2CCC(C(=O)NC(c3ccccc3)c3ccccc3)N2C1=O ?
*A* 70.5

*Q* // lookup viability, T/C | system=494315-158-R-J1-PDC complex spheroid growth, percent test/control | key= Cn1ncnc1[C@H]1c2n[nH]c(=O)c3cc(F)cc(c23)N[C@@H]1c1ccc(F)cc1 + CNC(C)C(=O)NC1CN(S(=O)(=O)c2cccc(S(=O)(=O)N3CCC4CCC(C(=O)NC(c5ccccc5)c5ccccc5)N4C(=O)C(NC(=O)C(C)NC)C3)c2)CCC2CCC(C(=O)NC(c3ccccc3)c3ccccc3)N2C1=O
*A* 46.1
